Recorded measurements of MIC, one per entry
tested on: Klebsiella pneumoniae; test: Antibacterial activity against carbapenem-resistant Klebsiella pneumoniae ATCC BAA-2470 incubated for 24 hrs by microtiter plate method; format: functional
Square brackets hold non-standard residues; d marks the D form. Peptide text beside a SMILES is read from it. Dip = N[C@H](C(=O)O)C(c1ccccc1)c1ccccc1
State just the number; it will be interpreted in µg/mL.

These solved cases illustrate the format of a correct answer.
N=C(N)NCCC[C@@H]1NC(=O)[C@H](CCCNC(=N)N)NC(=O)[C@H](CCCNC(=N)N)NC(=O)[C@H](C(c2ccccc2)c2ccccc2)NC(=O)[C@H](C(c2ccccc2)c2ccccc2)NC(=O)[C@H](C(c2ccccc2)c2ccccc2)NC(=O)[C@H](CCCNC(=N)N)NC1=O (cyclo(RRRR[Dip][Dip][Dip])) ... 12.5
O=C(O)c1cn(C2CC2)c2cc(N3CCNCC3)c(F)cc2c1=O ... 0.7

Alright, here's another compound for you.
Bench note, Klebsiella pneumoniae: N=C(N)NCCC[C@@H]1NC(=O)[C@H](CCCNC(=N)N)NC(=O)[C@H](C(c2ccccc2)c2ccccc2)NC(=O)[C@H](C(c2ccccc2)c2ccccc2)NC(=O)[C@H](C(c2ccccc2)c2ccccc2)NC(=O)[C@H](CCCNC(=N)N)NC1=O (cyclo([Dip][Dip][Dip]RRR)) , MIC reads 12.5

---

// reported viability at 24 h, 50 ug/ml per item
assay: Cytotoxicity against HEK293 assessed as cell viability at 50 ug/ml incubated for 24 hrs by microplate spectrophotometer analysis method relative to control; assay type: toxicity, cell-based; conditions: human, HEK293 cells, at 50 µg/mL, read-out: Activity
Square brackets hold non-standard residues; d marks the D form. Peptide text beside a SMILES is read from it. Dip = N[C@H](C(=O)O)C(c1ccccc1)c1ccccc1; 2Nal = N[C@@H](Cc1ccc2ccccc2c1)C(=O)O

N=C(N)NCCC[C@@H]1NC(=O)[C@H](CCCNC(=N)N)NC(=O)[C@H](CCCNC(=N)N)NC(=O)[C@H](Cc2ccc3ccccc3c2)NC(=O)[C@H](Cc2ccc3ccccc3c2)NC(=O)[C@H](Cc2ccc3ccccc3c2)NC(=O)[C@H](CCCNC(=N)N)NC1=O (cyclo(RRRR[2Nal][2Nal][2Nal])) ... 80%

In the following, a different compound is considered.
The compound listed as N=C(N)NCCC[C@@H]1NC(=O)[C@H](CCCNC(=N)N)NC(=O)[C@H](CCCNC(=N)N)NC(=O)[C@H](C(c2ccccc2)c2ccccc2)NC(=O)[C@H](C(c2ccccc2)c2ccccc2)NC(=O)[C@H](C(c2ccccc2)c2ccccc2)NC(=O)[C@H](CCCNC(=N)N)NC1=O (cyclo(RRRR[Dip][Dip][Dip])) shows viability at 24 h, 50 ug/ml equal to 80%

---

Each entry below carries its reported MIC.
tested on: Escherichia coli; assay: Antibacterial activity against Escherichia coli ATCC 25922 after 24 hrs in presence of 2 mM CaCl2 at by microtiter plate method; assay type: functional
Bridge positions count the residues as written; N and C are the ends. Square brackets hold non-standard residues; d marks the D form. Peptide text beside a SMILES is read from it. * marks the point of attachment. Dip = N[C@H](C(=O)O)C(c1ccccc1)c1ccccc1; 2Nal = N[C@@H](Cc1ccc2ccccc2c1)C(=O)O; X1 = CC[C@H](C)CCCCC(=O)*; Dab = NCC[C@H](N)C(=O)O
Quick reminder: number only, in µg/mL, skip the unit.

Sample records with MIC:
CC[C@H](C)CCCCC(=O)N[C@@H](CCN)C(=O)N[C@H](C(=O)N[C@@H](CCN)C(=O)N[C@H]1CCNC(=O)[C@H]([C@@H](C)O)NC(=O)[C@H](CCN)NC(=O)[C@H](CCN)NC(=O)[C@H](CC(C)C)NC(=O)[C@@H](Cc2ccccc2)NC(=O)[C@H](CCN)NC1=O)[C@@H](C)O (X1-[Dab]T[Dab][Dab][Dab][dF]L[Dab][Dab]T; lactam 4-C) ... 0.7
N=C(N)NCCC[C@@H]1NC(=O)[C@H](CCCNC(=N)N)NC(=O)[C@H](CCCNC(=N)N)NC(=O)[C@H](C(c2ccccc2)c2ccccc2)NC(=O)[C@H](C(c2ccccc2)c2ccccc2)NC(=O)[C@H](C(c2ccccc2)c2ccccc2)NC(=O)[C@H](CCCNC(=N)N)NC1=O (cyclo(RRRR[Dip][Dip][Dip])) ... 12.5
N=C(N)NCCC[C@@H]1NC(=O)[C@H](CCCNC(=N)N)NC(=O)[C@H](CCCNC(=N)N)NC(=O)[C@H](Cc2ccc3ccccc3c2)NC(=O)[C@H](Cc2ccc3ccccc3c2)NC(=O)[C@H](Cc2ccc3ccccc3c2)NC(=O)[C@H](CCCNC(=N)N)NC1=O (cyclo(RRRR[2Nal][2Nal][2Nal])) ... 25

The record that follows has no MIC shown yet.
Noted for O=C(O)c1cn(C2CC2)c2cc(N3CCNCC3)c(F)cc2c1=O : its MIC reads 0.3

---

The reader will find reported MIC values listed item by item below.
system: Escherichia coli; assay: Antibacterial activity against Escherichia coli ATCC 25922 incubated for 24 hrs by microtiter plate method; assay type: functional; settings: Escherichia coli, ATCC 25922, 24 h, read-out: MIC
Square brackets hold non-standard residues; d marks the D form. Peptide text beside a SMILES is read from it. Dip = N[C@H](C(=O)O)C(c1ccccc1)c1ccccc1; 2Nal = N[C@@H](Cc1ccc2ccccc2c1)C(=O)O
Only the number, expressed in µg/mL, is required.

Kindly note: Escherichia coli, N=C(N)NCCC[C@H](NC(=O)[C@H](CCCNC(=N)N)NC(=O)[C@H](CCCNC(=N)N)NC(=O)[C@@H](N)CCCNC(=N)N)C(=O)N[C@@H](Cc1ccc2ccccc2c1)C(=O)N[C@@H](Cc1ccc2ccccc2c1)C(=O)O (H-RRRR[2Nal][2Nal]-OH) , MIC value reported: 50

Hey, Escherichia coli data for N=C(N)NCCC[C@H](NC(=O)[C@H](CCCNC(=N)N)NC(=O)[C@H](CCCNC(=N)N)NC(=O)[C@@H](N)CCCNC(=N)N)C(=O)N[C@@H](Cc1ccc2ccccc2c1)C(=O)N[C@@H](Cc1ccc2ccccc2c1)C(=O)N[C@@H](Cc1ccc2ccccc2c1)C(=O)N[C@@H](Cc1ccc2ccccc2c1)C(=O)O (H-RRRR[2Nal][2Nal][2Nal][2Nal]-OH) : MIC came out at 50

Escherichia coli assay, compound N=C(N)NCCC[C@@H]1NC(=O)[C@H](CCCNC(=N)N)NC(=O)[C@H](Cc2ccc3ccccc3c2)NC(=O)[C@H](Cc2ccc3ccccc3c2)NC(=O)[C@H](Cc2ccc3ccccc3c2)NC(=O)[C@H](CCCNC(=N)N)NC1=O (cyclo([2Nal][2Nal][2Nal]RRR)) , recorded MIC = 25

For the compound N=C(N)NCCC[C@@H]1NC(=O)[C@H](CCCNC(=N)N)NC(=O)[C@H](C(c2ccccc2)c2ccccc2)NC(=O)[C@H](C(c2ccccc2)c2ccccc2)NC(=O)[C@H](C(c2ccccc2)c2ccccc2)NC(=O)[C@H](CCCNC(=N)N)NC1=O (cyclo([Dip][Dip][Dip]RRR)) , the measured MIC on Escherichia coli was 12.5

The reported Escherichia coli MIC of N=C(N)NCCC[C@@H]1NC(=O)[C@H](CCCNC(=N)N)NC(=O)[C@H](CCCNC(=N)N)NC(=O)[C@H](C(c2ccccc2)c2ccccc2)NC(=O)[C@H](C(c2ccccc2)c2ccccc2)NC(=O)[C@H](CCCNC(=N)N)NC1=O (cyclo([Dip][Dip]RRRR)) is 50

Record N=C(N)NCCC[C@H](NC(=O)[C@H](CCCNC(=N)N)NC(=O)[C@H](CCCNC(=N)N)NC(=O)[C@H](CCCNC(=N)N)NC(=O)[C@@H](N)CCCNC(=N)N)C(=O)N[C@@H](Cc1ccc2ccccc2c1)C(=O)N[C@@H](Cc1ccc2ccccc2c1)C(=O)N[C@@H](Cc1ccc2ccccc2c1)C(=O)O (H-RRRRR[2Nal][2Nal][2Nal]-OH) / Escherichia coli, MIC recorded as 25

Reading of MIC for N=C(N)NCCC[C@@H]1NC(=O)[C@H](CCCNC(=N)N)NC(=O)[C@H](CCCNC(=N)N)NC(=O)[C@H](Cc2ccc3ccccc3c2)NC(=O)[C@H](Cc2ccc3ccccc3c2)NC(=O)[C@H](Cc2ccc3ccccc3c2)NC(=O)[C@H](Cc2ccc3ccccc3c2)NC(=O)[C@H](CCCNC(=N)N)NC1=O (cyclo([2Nal][2Nal][2Nal][2Nal]RRRR)) with Escherichia coli: 25

Form: item N=C(N)NCCC[C@H](NC(=O)[C@H](Cc1ccc2ccccc2c1)NC(=O)[C@H](Cc1ccc2ccccc2c1)NC(=O)[C@H](CCCNC(=N)N)NC(=O)[C@H](CCCNC(=N)N)NC(=O)[C@H](Cc1ccc2ccccc2c1)NC(=O)[C@@H](N)CCCNC(=N)N)C(=O)O (H-R[2Nal]RR[2Nal][2Nal]R-OH) ; test system Escherichia coli; MIC: 25
